Tested on: NCI-H2228
EXPERIMENT: relative viability (nuclei count vs DMSO), 5 days (fraction); higher = more cells survive
SETTINGS: first compound 500 µM
Below, each entry is listed with its recorded relative viability.
READOUT LABEL: relative viability

MOLECULE	VAL
O=C(O)CCCCC(CCSCc1ccccc1)SCc1ccccc1 (centres undefined) [CPI-613] + O=C(c1cc(Cc2n[nH]c(=O)c3ccccc23)ccc1F)N1CCN(C(=O)C2CC2)CC1 [Olaparib] (partner 8 µM)	0.185
O=C(O)CCCCC(CCSCc1ccccc1)SCc1ccccc1 (centres undefined) [CPI-613] + CC(C)C[C@H](NC(=O)[C@H](Cc1ccccc1)NC(=O)c1cnccn1)B(O)O [Bortezomib] (partner 0.002 µM)	0.0287
O=C(O)CCCCC(CCSCc1ccccc1)SCc1ccccc1 (centres undefined) [CPI-613] + COc1cccc2cc(-c3nc([C@H]4CC[C@H](C(=O)O)CC4)n4ncnc(N)c34)[nH]c12 [OSI-027] (partner 0.5 µM)	0.072
O=C(O)CCCCC(CCSCc1ccccc1)SCc1ccccc1 (centres undefined) [CPI-613] + CCNC(=O)c1noc(-c2cc(C(C)C)c(O)cc2O)c1-c1ccc(CN2CCOCC2)cc1 [Luminespib] (partner 0.01 µM)	0.0612

----------
Test system: HCC-827
EXPERIMENT: relative viability (nuclei count vs DMSO), 5 days (fraction); higher = more cells survive
SETTINGS: first compound 0.002 µM

COMPOUND	relative viability
CC(=O)O[C@@]12CO[C@@H]1C[C@H](O)[C@@]1(C)C(=O)[C@H](O)C3=C(C)[C@@H](OC(=O)[C@H](O)[C@@H](NC(=O)OC(C)(C)C)c4ccccc4)C[C@@](O)([C@@H](OC(=O)c4ccccc4)[C@H]21)C3(C)C [Docetaxel] + Cc1nc(NC(=O)N2CCC[C@H]2C(N)=O)sc1-c1ccnc(C(C)(C)C(F)(F)F)c1 [Alpelisib] (partner 2 µM)	0.706
CC(=O)O[C@@]12CO[C@@H]1C[C@H](O)[C@@]1(C)C(=O)[C@H](O)C3=C(C)[C@@H](OC(=O)[C@H](O)[C@@H](NC(=O)OC(C)(C)C)c4ccccc4)C[C@@](O)([C@@H](OC(=O)c4ccccc4)[C@H]21)C3(C)C [Docetaxel] + O=C(CCCCCCC(=O)Nc1ccccc1)NO [Vorinostat] (partner 1 µM)	0.528
CC(=O)O[C@@]12CO[C@@H]1C[C@H](O)[C@@]1(C)C(=O)[C@H](O)C3=C(C)[C@@H](OC(=O)[C@H](O)[C@@H](NC(=O)OC(C)(C)C)c4ccccc4)C[C@@](O)([C@@H](OC(=O)c4ccccc4)[C@H]21)C3(C)C [Docetaxel] + COc1cc2c(Oc3ccc(NC(=O)C4(C(=O)Nc5ccc(F)cc5)CC4)cc3F)ccnc2cc1OCCCN1CCOCC1 [Foretinib] (partner 0.25 µM)	0.771

----------
Tested on: HOP-62
EXPERIMENT: relative viability (nuclei count vs DMSO), 5 days (fraction); higher = more cells survive
SETTINGS: first compound 2.53 µM
Note to self: use TRUE only for relative viability readings below 0.3; a reading exactly at 0.3 still gets FALSE.

MOLECULE	CLASS ASSIGNMENT
O=c1[nH]c2ccccc2n1C1CCN(CCCC(c2ccc(F)cc2)c2ccc(F)cc2)CC1 [Pimozide] + CS(=O)(=O)CCNCc1ccc(-c2ccc3ncnc(Nc4ccc(OCc5cccc(F)c5)c(Cl)c4)c3c2)o1 [Lapatinib] (partner 2 µM)	FALSE
Cc1cnc(-c2cnc(NCCNc3ccc(C#N)cn3)nc2-c2ccc(Cl)cc2Cl)[nH]1 + O=C(c1cc(Cc2n[nH]c(=O)c3ccccc23)ccc1F)N1CCN(C(=O)C2CC2)CC1 [Olaparib] (partner 8 µM)	FALSE
O=c1[nH]c2ccccc2n1C1CCN(CCCC(c2ccc(F)cc2)c2ccc(F)cc2)CC1 [Pimozide] + COc1cccc2cc(-c3nc([C@H]4CC[C@H](C(=O)O)CC4)n4ncnc(N)c34)[nH]c12 [OSI-027] (partner 0.5 µM)	FALSE
Cc1cnc(-c2cnc(NCCNc3ccc(C#N)cn3)nc2-c2ccc(Cl)cc2Cl)[nH]1 + C[C@@H](Oc1cc(-c2cnn(C3CCNCC3)c2)cnc1N)c1c(Cl)ccc(F)c1Cl [Crizotinib] (partner 1 µM)	FALSE
Cc1cnc(-c2cnc(NCCNc3ccc(C#N)cn3)nc2-c2ccc(Cl)cc2Cl)[nH]1 + Nc1ncn([C@H]2C[C@H](O)[C@@H](CO)O2)c(=O)n1 [Decitabine] (partner 2 µM)	TRUE
